assay: Log P value at the pH of 7.4; type: physicochemical; conditions: octanol/water, pH 7.4; read-out: LogD7.4
READOUT: logD
Output: the number by itself.

Example entries and their recorded answers appear below.
smiles_string=CCN1C[C@@H]([C@H](O)[C@H](CC2CCCCC2)NC(=O)[C@H](Cc2c[nH]cn2)NC(=O)[C@H](Cc2ccc(OC)cc2)NC(=O)N(C)CCOCOC)OC1=O readout=logD observed_value=2.3
smiles_string=CCN1C[C@@H]([C@H](O)[C@H](CC2CCCCC2)NC(=O)[C@H](Cc2c[nH]cn2)NC(=O)[C@H](Cc2ccc(OC)cc2)NC(=O)C(C)C)OC1=O readout=logD observed_value=2.85

I have this molecule here, `CCN1C[C@@H]([C@H](O)[C@H](CC2CCCCC2)NC(=O)[C@H](Cc2cnc[nH]2)NC(=O)[C@H](Cc2ccc(OC)cc2)NC(=O)N2C[C@H](OCOCCOC)[C@H](OCOCCOC)C2)OC1=O` , and I need its recorded logD.
1.67

###

assay: Log P value at the pH of 6.5; assay type: physicochemical; conditions: octanol/water, pH 6.5; read-out: LogD6.5
READOUT: logD
Output: the number by itself.

smiles_string=CCN1C[C@@H]([C@H](O)[C@H](CC2CCCCC2)NC(=O)[C@H](Cc2cnc[nH]2)NC(=O)[C@@H](CC(=O)N(C)CCOCOC)Cc2ccccc2)OC1=O observed_value=2.28
smiles_string=CCN1C[C@@H]([C@H](O)[C@H](CC2CCCCC2)NC(=O)[C@H](Cc2cnc[nH]2)NC(=O)[C@H](Cc2ccc(OC)cc2)NC(=O)N2C[C@H](OCOCCOC)[C@H](OCOCCOC)C2)OC1=O observed_value=1.58

For the next question, use this compound.
I have this compound here, `CCN1C[C@@H]([C@H](O)[C@H](CC2CCCCC2)NC(=O)[C@H](Cc2cnc[nH]2)NC(=O)[C@@H](CC(=O)N2C[C@H](OCOC)[C@H](OCOC)C2)Cc2ccccc2)OC1=O` , and I need its recorded logD.
2.08

###

assay: Solubility at 37 degree C and pH of 7.4; type: physicochemical; settings: pH 7.4; read-out: S
Each entry below lists one item and its recorded solubility value.
// return numeric value only (unit: mM, not printed)

Example entries and their recorded answers appear below.
smiles_string=CCN1C[C@@H]([C@H](O)[C@H](CC2CCCCC2)NC(=O)[C@H](Cc2cnc[nH]2)NC(=O)[C@@H](CC(=O)N2C[C@H](OCOC)[C@H](OCOC)C2)Cc2ccccc2)OC1=O measure_unit=mM observed_value=4.5
smiles_string=CCN1C[C@@H]([C@H](O)[C@H](CC2CCCCC2)NC(=O)[C@H](Cc2cnc[nH]2)NC(=O)[C@H](Cc2ccc(OC)cc2)NC(=O)N2CCOCC2)OC1=O measure_unit=mM observed_value=5.9

I have this molecule here, `CCN1C[C@@H]([C@H](O)[C@H](CC2CCCCC2)NC(=O)[C@H](Cc2c[nH]cn2)NC(=O)[C@H](Cc2ccc(OC)cc2)NC(=O)C(C)C)OC1=O` , and I need its recorded solubility.
0.37

###

Target: Renin (Homo sapiens)
Sequence (P00797 whole entry): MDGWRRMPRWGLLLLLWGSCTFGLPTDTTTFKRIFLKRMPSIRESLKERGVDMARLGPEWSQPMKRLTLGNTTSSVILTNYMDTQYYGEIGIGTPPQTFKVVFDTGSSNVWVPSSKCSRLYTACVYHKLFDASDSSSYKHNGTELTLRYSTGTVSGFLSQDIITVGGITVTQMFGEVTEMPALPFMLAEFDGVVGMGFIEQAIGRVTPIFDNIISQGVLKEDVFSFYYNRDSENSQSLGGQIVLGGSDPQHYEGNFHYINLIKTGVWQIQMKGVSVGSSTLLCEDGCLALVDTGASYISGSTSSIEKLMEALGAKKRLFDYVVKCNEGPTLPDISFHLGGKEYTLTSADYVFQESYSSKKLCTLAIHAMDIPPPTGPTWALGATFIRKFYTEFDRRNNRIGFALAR
Assay: Inhibitory activity against human plasma renin at pH 7.4
Format: functional, cell-free
Each entry below lists one item and its recorded IC50 value.
// return numeric value only (unit: nM, not printed)

Example entries and their recorded answers appear below.
smiles_string=CCN1C[C@@H]([C@H](O)[C@H](CC2CCCCC2)NC(=O)[C@H](Cc2c[nH]cn2)NC(=O)[C@H](Cc2ccc(OC)cc2)NC(=O)C(C)C)OC1=O readout=IC50 observed_value=9.9
smiles_string=CCN1C[C@@H]([C@H](O)[C@H](CC2CCCCC2)NC(=O)[C@H](Cc2cnc[nH]2)NC(=O)[C@@H](CC(=O)N2C[C@H](OCOCCOC)[C@H](OCOCCOC)C2)Cc2ccccc2)OC1=O readout=IC50 observed_value=7.3
smiles_string=CCN1C[C@@H]([C@H](O)[C@H](CC2CCCCC2)NC(=O)[C@H](Cc2cnc[nH]2)NC(=O)[C@@H](CC(=O)N(C)CCO)Cc2ccccc2)OC1=O readout=IC50 observed_value=2.5
smiles_string=CCN1C[C@@H]([C@H](O)[C@H](CC2CCCCC2)NC(=O)[C@H](Cc2cnc[nH]2)NC(=O)[C@@H](CC(=O)N2CCOCC2)Cc2ccccc2)OC1=O readout=IC50 observed_value=1.3
smiles_string=CCN1C[C@@H]([C@H](O)[C@H](CC2CCCCC2)NC(=O)[C@H](Cc2c[nH]cn2)NC(=O)[C@H](Cc2ccc(OC)cc2)NC(=O)N(C)CCOCOC)OC1=O readout=IC50 observed_value=27

I have this molecule here, `CCN1C[C@@H]([C@H](O)[C@H](CC2CCCCC2)NC(=O)[C@H](Cc2cnc[nH]2)NC(=O)[C@H](Cc2ccc(OC)cc2)NC(=O)N2C[C@H](OCOC)[C@H](OCOC)C2)OC1=O` , and I need its recorded IC50.
59

###

experiment: Plasma level when given intraduodenally to anesthetized rats (systemic) at 10 min; format: ADME, organism-based; conditions: rat, read-out: Plasma level
READOUT: concentration at 10 min (ng/mL)
// return numeric value only (unit: ng/mL, not printed)

I have this molecule here, `CCN1C[C@@H]([C@H](O)[C@H](CC2CCCCC2)NC(=O)[C@H](Cc2c[nH]cn2)NC(=O)[C@@H](CC(=O)N(C)CCOCOCCOC)Cc2ccccc2)OC1=O` , and I need its recorded concentration at 10 min.
1.6

###

Each entry below lists one item and its recorded IC50 value.
Biological target: Renin (Homo sapiens, UniProt P00797)
Sequence (P00797 whole entry): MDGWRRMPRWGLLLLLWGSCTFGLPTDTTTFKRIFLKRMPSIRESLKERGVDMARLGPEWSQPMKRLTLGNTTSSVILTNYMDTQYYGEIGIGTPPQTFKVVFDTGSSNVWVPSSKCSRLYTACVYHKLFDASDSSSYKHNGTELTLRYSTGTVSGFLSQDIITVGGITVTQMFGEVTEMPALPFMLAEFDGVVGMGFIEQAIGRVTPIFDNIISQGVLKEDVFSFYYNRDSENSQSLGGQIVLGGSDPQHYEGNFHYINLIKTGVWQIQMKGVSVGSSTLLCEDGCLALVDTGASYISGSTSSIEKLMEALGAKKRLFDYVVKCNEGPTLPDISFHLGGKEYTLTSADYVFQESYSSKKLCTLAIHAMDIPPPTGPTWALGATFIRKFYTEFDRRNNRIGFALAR
Assay: Inhibitory activity against human plasma renin at pH 7.4
Assay type: functional, cell-free
// return numeric value only (unit: nM, not printed)

Example entries and their recorded answers appear below.
compound="CCN1C[C@@H]([C@H](O)[C@H](CC2CCCCC2)NC(=O)[C@H](Cc2cnc[nH]2)NC(=O)[C@H](Cc2ccc(OC)cc2)NC(=O)N(C)CC(O)CO)OC1=O (stereo not given in full)" target_of_assay="Renin (Homo sapiens, UniProt P00797)" observed_value=46
compound=CCN1C[C@@H]([C@H](O)[C@H](CC2CCCCC2)NC(=O)[C@H](Cc2c[nH]cn2)NC(=O)[C@H](Cc2ccc(OC)cc2)NC(=O)N(C)CCOCOCCOC)OC1=O target_of_assay="Renin (Homo sapiens, UniProt P00797)" observed_value=14
compound=CCN1C[C@@H]([C@H](O)[C@H](CC2CCCCC2)NC(=O)[C@H](Cc2cnc[nH]2)NC(=O)[C@@H](CC(=O)N(C)CCOCOC)Cc2ccccc2)OC1=O target_of_assay="Renin (Homo sapiens, UniProt P00797)" observed_value=1.1
compound=CCN1C[C@@H]([C@H](O)[C@H](CC2CCCCC2)NC(=O)[C@H](Cc2c[nH]cn2)NC(=O)[C@H](Cc2ccc(OC)cc2)NC(=O)N2C[C@@H](O)[C@@H](O)C2)OC1=O target_of_assay="Renin (Homo sapiens, UniProt P00797)" observed_value=8.7

For the next question, use this compound.
I have this compound here, `CCN1C[C@@H]([C@H](O)[C@H](CC2CCCCC2)NC(=O)[C@H](Cc2cnc[nH]2)NC(=O)[C@@H](CC(=O)N2C[C@H](OCOC)[C@H](OCOC)C2)Cc2ccccc2)OC1=O` , and I need its recorded IC50.
11
